assay: Compound was evaluated for the Ionization constants at 37 degree Celsius pKa1; format: physicochemical; conditions: read-out: pKa1
reported.property: pKa
// response body must contain only the number

Check out these entries, answers already filled in.
CCC(C)N1CCN(c2cccc(Cl)c2)CC1 (stereo not given) :: 2.32
CCCN1CCN(c2cccc(Cl)c2)CC1 :: 2.39
CCCCCN1CCN(c2cccc(Cl)c2)CC1 :: 2.46
CC(C)N1CCN(c2cccc(Cl)c2)CC1 :: 2.37
CN1CCN(c2cccc(Cl)c2)CC1 :: 2.82
CCN1CCN(c2cccc(Cl)c2)CC1 :: 2.48

Q) Please look up its pKa: Clc1cccc(N2CCOCC2)c1
A) 2.33

###

assay: Compound was evaluated for the Ionization constants at 37 degree Centigrade pKa2; type: physicochemical; conditions: read-out: pKa2
reported.property: pKa
// response body must contain only the number

C=CCN1CCN(c2cccc(Cl)c2)CC1 :: 7.08
O=C1c2ccccc2S(=O)(=O)N1CCCCN1CCN(c2ncccn2)CC1 :: 5.25
CC(C)N1CCN(c2cccc(Cl)c2)CC1 :: 7.65
CCCCN1CCN(c2cccc(Cl)c2)CC1 :: 6.7
OCCN1CCN(c2cccc(Cl)c2)CC1 :: 6.92

Q) Please look up its pKa: CCCCCCN1CCN(c2cccc(Cl)c2)CC1
A) 5.49

Q) Subsequent entry: Clc1cccc(N2CCN(Cc3ccccc3)CC2)c1
A) 4.39

Q) Subsequent entry: CCCN(CCC)C1CCc2cccc(O)c2C1 (stereo not given)
A) 8.02

Q) Subsequent entry: CCN1CCN(c2cccc(Cl)c2)CC1
A) 7.89

Q) Subsequent entry: CCCCCN1CCN(c2cccc(Cl)c2)CC1
A) 6.13

Q) Subsequent entry: CCC(C)N1CCN(c2cccc(Cl)c2)CC1 (stereo not given)
A) 6.84

Q) Subsequent entry: CN1CCN(c2cccc(Cl)c2)CC1
A) 8.27

Q) Subsequent entry: CC1(C)CC(=O)N(CCCCN2CCN(c3ncccn3)CC2)C(=O)C1 [GEPIRONE]
A) 7.64

Q) Subsequent entry: Clc1cccc(N2CCNCC2)c1
A) 8.42

Q) Subsequent entry: CCCN1CCN(c2cccc(Cl)c2)CC1
A) 7.07

###

molecular target: 5-hydroxytryptamine receptor 1A (Rattus norvegicus, UniProt P19327); test: In vitro ability to displace [3H]8-hydroxy-2-(di-n-propylamino) tetralin binding from 5-hydroxytryptamine 1A receptor site in rat brain hippocampus
Sequence (P19327 whole entry): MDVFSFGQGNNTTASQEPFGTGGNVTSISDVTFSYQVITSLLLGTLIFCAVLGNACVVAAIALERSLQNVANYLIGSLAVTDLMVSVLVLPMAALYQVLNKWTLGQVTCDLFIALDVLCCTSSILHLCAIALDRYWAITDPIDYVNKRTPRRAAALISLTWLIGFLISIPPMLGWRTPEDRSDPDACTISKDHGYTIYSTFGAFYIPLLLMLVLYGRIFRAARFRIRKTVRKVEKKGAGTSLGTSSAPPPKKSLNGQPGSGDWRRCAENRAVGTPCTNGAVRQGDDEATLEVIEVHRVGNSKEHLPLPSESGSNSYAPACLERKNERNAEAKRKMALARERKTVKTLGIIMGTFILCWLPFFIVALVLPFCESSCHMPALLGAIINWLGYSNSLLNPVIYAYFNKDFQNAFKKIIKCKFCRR
reported.property: Ki (nM)
Response body: numeric value in nM, unit text excluded.

Check out these entries, answers already filled in.
CCCCN1CCN(c2cccc(Cl)c2)CC1 :: 18.4
CCCCCN1CCN(c2cccc(Cl)c2)CC1 :: 5.54

Q) Please look up its Ki: OCCN1CCN(c2cccc(Cl)c2)CC1
A) 202

Q) Subsequent entry: C=CCN1CCN(c2cccc(Cl)c2)CC1
A) 251

Q) Subsequent entry: O=C1c2ccccc2S(=O)(=O)N1CCCCN1CCN(c2ncccn2)CC1 [IPSAPIRONE]
A) 3.4

Q) Subsequent entry: CCCCCCN1CCN(c2cccc(Cl)c2)CC1
A) 2.67

Q) Subsequent entry: CCCC(=O)N1CCN(c2cccc(Cl)c2)CC1
A) 49000

###

molecular target: 5-hydroxytryptamine receptor 1A (Rattus norvegicus, UniProt P19327); test: In vitro ability to displace [3H]8-hydroxy-2-(di-n-propylamino) tetralin binding from 5-hydroxytryptamine 1A receptor site in rat brain hippocampus
reported.property: pKi
Units for pKi: none; it is -log10 of a concentration expressed in mol/L.

Check out these entries, answers already filled in.
Clc1cccc(N2CC[N+]3(CCCC3)CC2)c1 :: 5.14
CN1CCN(c2cccc(Cl)c2)CC1 :: 6.82
CCN1CCN(c2cccc(Cl)c2)CC1 :: 6.66
Clc1cccc(N2CCN(Cc3ccccc3)CC2)c1 :: 6.78
Clc1cccc(N2CCNCC2)c1 :: 6.84
CCC(C)N1CCN(c2cccc(Cl)c2)CC1 (stereo not drawn) :: 6.90

Q) Please look up its pKi: O=C(Cc1ccccc1)N1CCN(c2cccc(Cl)c2)CC1
A) 4.83

Q) Subsequent entry: CCC(=O)N1CCN(c2cccc(Cl)c2)CC1
A) 4.51

Q) Subsequent entry: CC(C)N1CCN(c2cccc(Cl)c2)CC1
A) 6.80

Q) Subsequent entry: CCCN1CCN(c2cccc(Cl)c2)CC1
A) 6.91

###

test: Compound was evaluated for the Ionization constants at 37 degree Celsius pKa1; type: physicochemical; conditions: read-out: pKa1
Each entry below carries its recorded pKa.
// response body must contain only the number

C=CCN1CCN(c2cccc(Cl)c2)CC1 :: 2.94
CCCCCCN1CCN(c2cccc(Cl)c2)CC1 :: 2.57

Q) Please look up its pKa: CCCCN1CCN(c2cccc(Cl)c2)CC1
A) 2.43

###

target: 5-hydroxytryptamine receptor 1A (Rattus norvegicus, UniProt P19327); experiment: In vitro ability to displace [3H]8-hydroxy-2-(di-n-propylamino) tetralin binding from 5-hydroxytryptamine 1A receptor site in rat brain hippocampus
reported.property: Ki

Check out these entries, answers already filled in.
O=C(c1ccccc1)N1CCN(c2cccc(Cl)c2)CC1 :: > 100 µM
Clc1cccc(N2CCOCC2)c1 :: > 100 µM

Next up:
Q) Please look up its Ki: CC(=O)N1CCN(c2cccc(Cl)c2)CC1
A) > 100 µM
